- target-of-assay: gp41 of HIV-1 strain HXB2D with mutation V38A (HIV-1 strain HXB2D, UniProt P04578)
- method-description: cell-based or functional assay
Starred links: 1 amine or outer side, 2 acyl side, 3 side chain; linkers in the order of their positions; H or OH if unused. Positions of bridges follow the written chain, without caps; N, C: chain ends. Non-standard residues stand in square brackets, D forms with d. Suc = O=C(CCC(=O)[*:2])[*:1]; Abu = CC[C@H](N)C(=O)O; B1 = not defined here
Below, each of the binders is paired with its reported fold change in EC50, HIV-HXB2D V38A mutant value.
Answer format: value, then unit.

// below: answered binders
{"binder": "Suc-ACYLACIEALIRA[Abu]QEQQEKNEAALR-NH2 (linker 2-6 via B1; reading uncertain) [peptide 47]", "val": "17 fold"}
{"binder": "Ac-[dA]CYAACIEALIRAAQEQQEKNEAAL[dR]-NH2 (linker 2-6 via 2,7‑dimethylnaphthyl) [peptide 75]", "val": "21 fold"}
{"binder": "Ac-ENYLALIEALIRAAQEQQEKNEAALR-NH2 [peptide 8]", "val": "46 fold"}
{"binder": "Ac-SWETWEREIENYTRQIYRILEESQEQQDRNERDLLE-NH2 [Sifuvirtide]", "val": "1 fold"}

Now for a further binder.
// lookup fold change in EC50, HIV-HXB2D V38A mutant for Suc-ACYLACIEALIRAAQEQQEKNEAALR-NH2 (linker 2-6 via B1; reading uncertain) [peptide 43]
19 fold
